ASSAY_SYSTEM: Receptor-type tyrosine-protein kinase FLT3 (Homo sapiens, UniProt P36888, D835H)
MEASUREMENT_PROTOCOL: Binding affinity to human partial length FLT3 D835H mutant (592 to 969 residues) expressed in bacterial expression system after 1 hr
pKd: −log10 of the molar value.

CHEMICAL_SMILES: Cc1cc(Nc2ncc3ncc(=O)n(-c4ccc(N)cc4)c3n2)ccc1N1CCN(C)CC1
pKd: 8.74

====

ASSAY_SYSTEM: Receptor-type tyrosine-protein kinase FLT3 (Homo sapiens, UniProt P36888, ITD)
MEASUREMENT_PROTOCOL: Binding affinity to human partial length FLT3 ITD mutant expressed in bacterial expression system after 1 hr
MEASUREMENT_LABEL: Kd

CHEMICAL_SMILES: Cc1cc(Nc2ncc3ncc(=O)n(-c4ccc(N)cc4)c3n2)ccc1N1CCN(C)CC1
MEASUREMENT_LABEL: Kd
TEST_VALUE: 6.9 nM

====

MEASUREMENT_PROTOCOL: Tmax in overnight fasted Sprague-Dawley rat plasma at 10 mg/kg administered via oral gavage up to 24 hrs by LC-MS/MS analysis
Type: ADME, organism-based

CHEMICAL_SMILES: Cc1cc(Nc2ncc3ncc(=O)n(-c4ccc(N)cc4)c3n2)ccc1N1CCN(C)CC1
QUANTITY_UNIT: h
Tmax: 2.17

====

MEASUREMENT_PROTOCOL: AUC (0 to infinity) in overnight fasted Sprague-Dawley rat plasma at 10 mg/kg administered via oral gavage up to 24 hrs by LC-MS/MS analysis
Assay type: ADME, organism-based
Parameters: dose 10 mg/kg, route oral, time infinity

CHEMICAL_SMILES: Cc1cc(Nc2ncc3ncc(=O)n(-c4ccc(N)cc4)c3n2)ccc1N1CCN(C)CC1
AUC(0-inf) / ng·h/mL: 311

====

ASSAY_SYSTEM: Receptor-type tyrosine-protein kinase FLT3 (Homo sapiens)
Sequence (P36888 whole entry): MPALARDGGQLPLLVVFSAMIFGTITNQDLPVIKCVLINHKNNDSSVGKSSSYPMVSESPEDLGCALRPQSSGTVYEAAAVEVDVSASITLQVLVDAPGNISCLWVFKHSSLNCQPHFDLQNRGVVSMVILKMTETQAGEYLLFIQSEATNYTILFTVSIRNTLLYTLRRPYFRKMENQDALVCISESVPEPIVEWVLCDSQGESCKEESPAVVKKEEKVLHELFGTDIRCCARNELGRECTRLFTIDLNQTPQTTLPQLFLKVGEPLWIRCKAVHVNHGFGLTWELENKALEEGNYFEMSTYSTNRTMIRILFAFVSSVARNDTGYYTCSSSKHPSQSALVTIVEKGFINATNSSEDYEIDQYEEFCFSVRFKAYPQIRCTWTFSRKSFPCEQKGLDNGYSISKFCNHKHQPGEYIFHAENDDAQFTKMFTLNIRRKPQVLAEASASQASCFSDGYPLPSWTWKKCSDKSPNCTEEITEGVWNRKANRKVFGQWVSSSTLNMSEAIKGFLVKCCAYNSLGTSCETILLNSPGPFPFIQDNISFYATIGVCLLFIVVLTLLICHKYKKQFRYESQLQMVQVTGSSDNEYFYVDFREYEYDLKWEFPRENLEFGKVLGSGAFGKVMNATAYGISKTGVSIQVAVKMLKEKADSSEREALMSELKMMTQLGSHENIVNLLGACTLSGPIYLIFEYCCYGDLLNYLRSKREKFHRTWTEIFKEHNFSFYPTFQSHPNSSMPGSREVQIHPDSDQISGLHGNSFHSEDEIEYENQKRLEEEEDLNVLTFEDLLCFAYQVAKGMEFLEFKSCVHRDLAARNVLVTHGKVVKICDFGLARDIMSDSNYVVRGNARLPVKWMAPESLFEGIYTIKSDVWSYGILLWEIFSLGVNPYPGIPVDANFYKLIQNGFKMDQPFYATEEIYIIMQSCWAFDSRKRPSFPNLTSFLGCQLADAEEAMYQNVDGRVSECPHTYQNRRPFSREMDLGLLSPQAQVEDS
pIC50: −log10 of the molar value.
MEASUREMENT_LABEL: pIC50

CHEMICAL_SMILES: Cc1cc(Nc2ncc3ncc(=O)n(-c4ccc(N)cc4)c3n2)ccc1N1CCN(C)CC1
MEASUREMENT_LABEL: pIC50
TEST_VALUE: 8.81

CHEMICAL_SMILES: C=CC(=O)Nc1ccc(-n2c(=O)cnc3cnc(Nc4ccc(N5CCN(C)CC5)cc4)nc32)cc1
MEASUREMENT_LABEL: pIC50
TEST_VALUE: 7.33

CHEMICAL_SMILES: C=CC(=O)Nc1ccc(-n2c(=O)cnc3cnc(Nc4ccccc4)nc32)cc1
MEASUREMENT_LABEL: pIC50
TEST_VALUE: 6.78

CHEMICAL_SMILES: COc1ccc(Nc2ncc3ncc(=O)n(-c4ccc(N)cc4)c3n2)cc1
MEASUREMENT_LABEL: pIC50
TEST_VALUE: 7.54
